The reader will find reported pEC50 values listed item by item below.
# Measured On: hTRPM8 (Homo sapiens)
# Construct: expressed in transfected cells
# Assay Protocol: Assay on TRPM8 modulators: calcium imaging (Fluo-4, Flexstation) in HEK293 cell line stably expressing hTRPM8
# Type: cell-based
# Run Conditions: HEK293 cells stably expressing hTRPM8, calcium influx, sigmoidal dose-response fit; read-out: EC50
# Method: A HEK293 cell line stably expressing hTRPM8 was generated according to Klein et al., (Chem. Senses 36: 649-658, 2011) and receptor activation was monitored by calcium imaging in a Flexstation. […] On day 2, agonists were evaluated via calcium imaging using Fluo-4. […] The cells were then washed five times with 100 μL assay buffer and then calcium influx to serial dilutions of inventive compounds were measured in a Flexstation 3 (Molecular Devices). […]
pEC50: −log10 of the molar value.

Answered cases to consult:
INSERT INTO assay_data (compound, measurement_name, result) VALUES
  ('CC(C)c1cccc([C@@]2(C)C[C@@H]3[C@@H]([C@@H](C)C2)N(C)OC3(C)C)c1 (racemic)', 'pEC50', '4.46 to 6.00'),
  ('Cc1ccc([C@@]2(C)C[C@@H]3[C@@H]([C@@H](C)C2)N(C)OC3(C)C)c(C)c1 (racemic)', 'pEC50', '6.52 to 7.30'),
  ('Cc1cc([C@@]2(C)C[C@@H]3[C@@H]([C@@H](C)C2)N(C)OC3(C)C)cs1 (racemic)', 'pEC50', '6.52 to 7.30'),
  ('CC1=CC[C@H](C2CCC3C(C2)N(C)OC3(C)C)CC1 (stereo partly shown)', 'pEC50', '6.00 to 6.52'),
  ('Cc1ccccc1[C@@]1(C)C[C@@H]2[C@@H]([C@@H](C)C1)N(C(C)C)OC2(C)C (racemic)', 'pEC50', '6.52 to 7.30'),
  ('CCCCC[C@@H]1CC[C@@H]2[C@@H](C1)C(C)(C)ON2C (racemic)', 'pEC50', '6.00 to 6.52'),
  ('CC(C)N1OC(C)(C)[C@@H]2C[C@H](c3ccc(C(C)(C)C)cc3)C[C@H](C)[C@H]21 (racemic)', 'pEC50', '4.46 to 6.00'),
  ('CC(C)N1OC(C)(C)[C@@H]2C[C@H](c3ccccc3)C[C@H](C)[C@H]21 (racemic)', 'pEC50', '6.52 to 7.30');

[in] Which pEC50 value is on record for Cc1ccc(C#N)cc1[C@@]1(C)C[C@@H]2[C@@H]([C@@H](C)C1)N(C)OC2(C)C (stereo in doubt) [Compound 138] ?
[out] > 7.30

[in] Which pEC50 value is on record for C[C@H]1C[C@@](C)(c2ccc(C(C)(C)C)cc2)C[C@@H]2[C@@H]1N(C)OC2(C)C (racemic) ?
[out] 4.46 to 6.00

###

# Measured On: hTRPM8 (Homo sapiens, UniProt Q7Z2W7)
# Construct: expressed in transfected cells
# Sequence (Q7Z2W7 whole entry): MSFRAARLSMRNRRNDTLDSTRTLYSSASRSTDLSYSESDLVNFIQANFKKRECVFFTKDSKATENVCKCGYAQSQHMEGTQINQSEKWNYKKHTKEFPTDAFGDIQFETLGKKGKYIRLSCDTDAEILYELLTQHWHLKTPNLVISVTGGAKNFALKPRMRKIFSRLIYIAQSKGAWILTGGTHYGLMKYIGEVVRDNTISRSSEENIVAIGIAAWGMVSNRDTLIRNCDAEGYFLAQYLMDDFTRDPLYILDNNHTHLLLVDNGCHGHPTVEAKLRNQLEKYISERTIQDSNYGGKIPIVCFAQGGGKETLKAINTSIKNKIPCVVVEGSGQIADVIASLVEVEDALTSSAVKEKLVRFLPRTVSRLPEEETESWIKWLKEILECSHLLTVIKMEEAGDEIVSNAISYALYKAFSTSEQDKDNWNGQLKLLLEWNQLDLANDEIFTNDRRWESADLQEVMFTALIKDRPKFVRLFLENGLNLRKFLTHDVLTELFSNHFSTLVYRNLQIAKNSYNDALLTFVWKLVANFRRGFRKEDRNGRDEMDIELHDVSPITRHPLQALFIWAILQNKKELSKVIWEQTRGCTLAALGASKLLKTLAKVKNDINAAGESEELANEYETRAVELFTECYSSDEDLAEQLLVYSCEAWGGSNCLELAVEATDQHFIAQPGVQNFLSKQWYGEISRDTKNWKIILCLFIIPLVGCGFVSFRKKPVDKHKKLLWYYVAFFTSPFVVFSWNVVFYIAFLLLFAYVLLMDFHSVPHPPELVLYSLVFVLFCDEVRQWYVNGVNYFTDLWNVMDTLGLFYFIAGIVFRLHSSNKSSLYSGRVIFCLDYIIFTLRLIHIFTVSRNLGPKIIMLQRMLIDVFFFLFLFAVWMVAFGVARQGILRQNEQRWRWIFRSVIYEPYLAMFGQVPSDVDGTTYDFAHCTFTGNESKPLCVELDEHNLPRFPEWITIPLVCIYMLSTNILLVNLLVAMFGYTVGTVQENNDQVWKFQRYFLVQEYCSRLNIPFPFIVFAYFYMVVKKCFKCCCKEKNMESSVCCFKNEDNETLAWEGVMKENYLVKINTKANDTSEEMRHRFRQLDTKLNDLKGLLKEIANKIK
# Assay Protocol: Assay on TRPM8 modulators: calcium imaging (Fluo-4, Flexstation) in HEK293 cell line stably expressing hTRPM8
# Format: cell-based
# Run Conditions: HEK293 cells stably expressing hTRPM8, calcium influx, sigmoidal dose-response fit; read-out: EC50
Measurement Name: EC50

INSERT INTO assay_data (molecule, measurement_name, result) VALUES
  ('Cc1c(Cl)cccc1[C@@]1(C)C[C@@H]2[C@@H]([C@@H](C)C1)N(C)OC2(C)C (racemic)', 'EC50', '50 to 300 nM');

[in] Which EC50 value is on record for CC1CC(C)(c2cccnc2)CC2C1N(C)OC2(C)C (centres unmarked) ?
[out] 1000 to 35000 nM

[in] Which EC50 value is on record for Cc1cc(Cl)ccc1[C@H]1C[C@@H]2[C@@H]([C@@H](C)C1)N(C(C)C)OC2(C)C (racemic) ?
[out] 50 to 300 nM

[in] Which EC50 value is on record for Cc1ccc(F)cc1[C@H]1C[C@@H]2[C@@H]([C@@H](C)C1)N(C)OC2(C)C (racemic) ?
[out] 300 to 1000 nM

[in] Which EC50 value is on record for CC(C)=CCC1(C)CC(C)C2C(C1)C(C)(C)ON2C(C)C (centres unmarked) ?
[out] 300 to 1000 nM

[in] Which EC50 value is on record for CCN1OC(C)(C)[C@@H]2C[C@](C)(c3ccccc3C)C[C@H](C)[C@H]21 (racemic) ?
[out] < 50 nM

[in] Which EC50 value is on record for C[C@H]1C[C@@](C)(c2ccc(F)cc2)C[C@H]2[C@H]1N(C)OC2(C)C (racemic) ?
[out] 300 to 1000 nM

[in] Which EC50 value is on record for Cc1c(Cl)cccc1[C@]1(C)C[C@@H](C)[C@@H]2[C@@H](C1)C(C)(C)ON2C (racemic) ?
[out] 300 to 1000 nM

###

The reader will find reported EC50 values listed item by item below.
# Measured On: hTRPM8 (Homo sapiens)
# Construct: expressed in transfected cells
# Assay Protocol: Assay on TRPM8 modulators: calcium imaging (Fluo-4, Flexstation) in HEK293 cell line stably expressing hTRPM8
# Format: cell-based
# Run Conditions: HEK293 cells stably expressing hTRPM8, calcium influx, sigmoidal dose-response fit; read-out: EC50

Answered cases to consult:
INSERT INTO measurements (molecule, measurement_name, result) VALUES
  ('COc1ccccc1[C@H]1C[C@@H]2[C@@H]([C@@H](C)C1)N(C)OC2(C)C (racemic)', 'EC50', '< 50 nM'),
  ('Cc1ccccc1[C@H]1C[C@@H]2[C@@H]([C@@H](C)C1)N(C(C)C)OC2(C)C (racemic)', 'EC50', '300 to 1000 nM'),
  ('CCN1OC(C)(C)C2CC(C)(CC=C(C)C)CC(C)C21 (stereo not shown)', 'EC50', '50 to 300 nM');

[in] Which EC50 value is on record for CCCC[C@@H]1CC[C@@H]2[C@@H](C1)C(C)(C)ON2CC (racemic) ?
[out] 300 to 1000 nM

###

# Measured On: hTRPM8 (Homo sapiens, UniProt Q7Z2W7)
# Construct: expressed in transfected cells
# Assay Protocol: Assay on TRPM8 modulators: calcium imaging (Fluo-4, Flexstation) in HEK293 cell line stably expressing hTRPM8
# Type: cell-based
# Run Conditions: HEK293 cells stably expressing hTRPM8, calcium influx, sigmoidal dose-response fit; read-out: EC50
Measurement Name: EC50

Answered cases to consult:
INSERT INTO assay_data (compound, result) VALUES
  ('CCN1OC(C)(C)[C@@H]2C[C@](C)(CC=C(C)C)C[C@@H](C)[C@H]21 (racemic)', '1 to 35 µM'),
  ('C[C@H]1C[C@@](C)(c2cc(F)cc(F)c2)C[C@@H]2[C@@H]1N(C)OC2(C)C (racemic)', '< 0.05 µM'),
  ('CCC[C@@]1(C)C[C@@H]2[C@@H]([C@@H](C)C1)N(C)OC2(C)C (racemic)', '0.3 to 1 µM');

Continue with the next compound.
[in] Which EC50 value is on record for Cc1cc(C)cc([C@@]2(C)C[C@@H]3[C@@H]([C@@H](C)C2)N(C(C)C)OC3(C)C)c1 (racemic) ?
[out] 0.3 to 1 µM

###

The reader will find reported EC50 values listed item by item below.
# Measured On: hTRPM8 (Homo sapiens, UniProt Q7Z2W7)
# Construct: expressed in transfected cells
# Assay Protocol: Assay on TRPM8 modulators: calcium imaging (Fluo-4, Flexstation) in HEK293 cell line stably expressing hTRPM8
# Assay type: cell-based
# Run Conditions: HEK293 cells stably expressing hTRPM8, calcium influx, sigmoidal dose-response fit; read-out: EC50
# Description: A HEK293 cell line stably expressing hTRPM8 was generated according to Klein et al., (Chem. Senses 36: 649-658, 2011) and receptor activation was monitored by calcium imaging in a Flexstation. […] On day 2, agonists were evaluated via calcium imaging using Fluo-4. […] The cells were then washed five times with 100 μL assay buffer and then calcium influx to serial dilutions of inventive compounds were measured in a Flexstation 3 (Molecular Devices). […]

[in] For hTRPM8 (Homo sapiens, UniProt Q7Z2W7), provide EC50 of Cc1cc(C)c([C@@]2(C)C[C@@H]3[C@@H]([C@@H](C)C2)N(C)OC3(C)C)cc1C (racemic) please.
[out] 50 to 300 nM

[in] For hTRPM8 (Homo sapiens, UniProt Q7Z2W7), provide EC50 of C[C@@H]1C[C@@](C)(c2ccc(Cl)c(C#N)c2)C[C@H]2[C@H]1N(C)OC2(C)C (racemic) please.
[out] 1000 to 35000 nM

[in] For hTRPM8 (Homo sapiens, UniProt Q7Z2W7), provide EC50 of C[C@H]1C[C@@](C)(c2ccc(F)cc2)C[C@@H]2[C@@H]1N(C)OC2(C)C (racemic) please.
[out] < 50 nM

[in] For hTRPM8 (Homo sapiens, UniProt Q7Z2W7), provide EC50 of CN1OC(C)(C)[C@@H]2CCC(c3ccccc3)C[C@H]21 (mixture of isomers) please.
[out] 1000 to 35000 nM

[in] For hTRPM8 (Homo sapiens, UniProt Q7Z2W7), provide EC50 of Cc1ccc(C#N)cc1[C@@]1(C)C[C@@H]2[C@@H]([C@@H](C)C1)N(C(C)C)OC2(C)C (racemic) please.
[out] 50 to 300 nM

[in] For hTRPM8 (Homo sapiens, UniProt Q7Z2W7), provide EC50 of CCC[C@@H]1CC[C@@H]2[C@@H](C1)C(C)(C)ON2CC (racemic) please.
[out] 300 to 1000 nM

[in] For hTRPM8 (Homo sapiens, UniProt Q7Z2W7), provide EC50 of CC(C)CCC1CC(C)C2C(C1)C(C)(C)OCN2C (stereo not drawn) please.
[out] 1000 to 35000 nM

The reported numbers originate from patent US20230002334A1.
